METHOD SUMMARY: PERK-eIF2a-CHOP pathway stimulators – cell-based, CHO-CHOP luciferase reporter, luminescence, uHTS, primary screen (AID 449763);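 further: 100% = tunicamycin at 10 µg/mL and 0% = DMSO alone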
TEST SETTINGS: UPR activation, at 10 µM, hits give high values, percent of tunicamycin response over DMSO baseline
Screen size: about 330,000 compounds; about 1,100 (0.33%) were called active. The list comes from a sample in which actives are over-represented; it also holds close analogues and randomly drawn compounds.
MEASUREMENT TYPE: activation (%)
One number for each entry, in %.

Working through the 7 compounds below one at a time, give activation for each.
1. CCc1ccc2c(c1)C1(NN=C(c3ccccc3)S1)C(=O)N2 (stereo unspecified)
2. COCc1ccc(C(=O)N2CCc3c([nH]c4ccccc34)C2c2ccccn2)s1 (stereo unspecified)
3. CCN(C(=O)COC(=O)/C=C/c1nc2ccccc2s1)C1CCS(=O)(=O)C1 (stereo unspecified)
4. C=CCOc1ccc(/C=C2/C(=O)ON=C2C)cc1OCC
5. Cc1c(CN2CCC(n3nccc3NC(=O)CCc3ccccc3)CC2)cnn1C
6. COc1ccc(NC(=O)C(CC(C)C)NC(=O)C2CCC(C)CC2)cc1 (stereo unspecified)
7. Cc1occc1C(=O)NC1CCCN(Cc2ccc(CC(C)C)cc2)C1 (stereo unspecified)

-- reply
1. 135
2. -0.769
3. 0.0282
4. 0.964
5. 1.65
6. 0.903
7. 1.93

====

METHOD SUMMARY: PERK-eIF2a-CHOP pathway stimulators – cell-based, CHO-CHOP luciferase reporter, luminescence, uHTS, primary screen (AID 449763);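 further: 100% = tunicamycin at 10 µg/mL and 0% = DMSO alone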
TEST SETTINGS: UPR activation, at 10 µM, hits give high values, percent of tunicamycin response over DMSO baseline
The whole screen tested about 330,000 compounds, of which about 1,100 (0.33%) were called active. The entries come from a sample that favours actives as a whole.
MEASUREMENT TYPE: activation (%)
Give bare numbers, in %.

Examples from the recorded data:
>>> print(df.to_string())
                                   compound  reported_result
0  CC(=O)NNC1=Nc2ccccc2N(C)C(C)C1 (centres undefined)             1.41
1  COc1ccc(C2=NOC(Cn3nc(C(=O)NCc4ccc5c(c4)OCO5)cc3-c3ccccc3)C2)cc1 (centres undefined)             0.69
2  COC(=O)c1ccc(C(=O)OC)c(NC(=S)N2CCN(c3cc(Cl)ccc3C)CC2)c1             1.94
3          O=C(NCc1ccco1)c1sc2cccc(F)c2c1Cl             2.12
4  COc1ccc(/C=N/Nc2cc(N3CCOCC3)nc(C)n2)c(OC)c1             8.25

Working through the 2 compounds below one at a time, give activation for each.
1. CCn1c(SCc2ccccc2)nc2cc(OC)c(OC)cc2c1=O
2. CCOc1ccc(Br)cc1CSC(=N)N

-- reply
1: -0.179; 2: 0.704

Working through the 8 compounds below one at a time, give activation for each.
1. NS(=O)(=O)c1ccc(CCNS(=O)(=O)c2cccc3cccnc23)cc1
2. CC(=O)Nc1ccc(NC(=O)C(C)OC(=O)c2ccccc2C(=O)c2ccc(Cl)c([N+](=O)[O-])c2)cc1 (centres undefined)
3. COc1ccccc1/C=N/N1CCN(Cc2ccccc2Cl)CC1
4. O=C(COc1ccccc1O)NC1CCCC1
5. CCc1noc(C)c1C(=O)N1CCCSC1=Nc1ccccc1OC
6. CCCOC1CCCN(Cc2cn(C)nc2-c2ccccc2F)C1 (centres undefined)
7. COc1ccc(Nc2cc(C)nc(-n3nc(C)cc3C)n2)cc1
8. CCc1nn(-c2cc(Oc3cccc4ccccc34)nc(-c3ccccc3)n2)c(N)c1C#N

-- reply
0.112
12.1
-0.532
3.04
2.57
44.6
62.8
56.7

====

METHOD SUMMARY: PERK-eIF2a-CHOP pathway stimulators – cell-based, CHO-CHOP luciferase reporter, luminescence, uHTS, primary screen (AID 449763);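 further: 100% = tunicamycin at 10 µg/mL and 0% = DMSO alone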
TEST SETTINGS: UPR activation, at 10 µM, percent of tunicamycin response over DMSO baseline
Screen size: about 330,000 compounds; about 1,100 (0.33%) were called active.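 The calls were made as follows: active = at 10 µM dose, activation of 40% or more, normalized to positive control; inactive = the rest.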 Shown is part of a subset that was picked to be rich in actives.
Could you please pick one outcome from this set? true (active), false (inactive)

Answered examples (2):
>>> print(df.to_string())
                                   compound  discrete_label
0  Cc1cc(C(=O)CCl)c(C)n1CC1COc2ccccc2O1 (stereo unspecified)            true
1  CCCCC[C@H]1CN(C2CCCCC2)C(=O)[C@@H]1CC(=O)NCc1ccc(OC)cc1           false

-- ask Please indicate how the test categorized `Cc1ccc(NC(=O)c2cccs2)cc1S(=O)(=O)N(C)C` .
-- reply false

-- ask Please indicate how the test categorized `O=C1/C(=C/c2ccc(F)cc2)SC(=S)N1NS(=O)(=O)c1ccccc1` .
-- reply false

-- ask Please indicate how the test categorized O=C1C(=O)N(CC2COc3ccccc3O2)c2ccccc21 (stereo unspecified) .
-- reply false

-- ask Please indicate how the test categorized Cc1cccc(C)c1NC(=O)C(Cl)C(=O)c1ccccc1 (stereo unspecified) .
-- reply true

====

METHOD SUMMARY: PERK-eIF2a-CHOP pathway stimulators – cell-based, CHO-CHOP luciferase reporter, luminescence, uHTS, primary screen (AID 449763);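 further: 100% = tunicamycin at 10 µg/mL and 0% = DMSO alone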
TEST SETTINGS: UPR activation, at 10 µM, percent of tunicamycin response over DMSO baseline
Screen size: about 330,000 compounds; about 1,100 (0.33%) were called active.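 The calls were made as follows: active = at 10 µM dose, activation of 40% or more, normalized to positive control; inactive = the rest.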 Many of the other results were omitted from the sample, so actives are more common in it than they were.
Could you please pick one outcome from this set? active, inactive

In [3]: df
Out[3]:
                                   molecule  discrete_label
0  O=C(NCC12CC3CC(C1)CC(CNC(=O)N1CCCC1)(C3)C2)N1CCCC1        inactive
1  CC1(C)CC(=O)C=C(NC2CC(C)(C)NC(C)(C)C2)C1        inactive
2  COc1ccc(OC)c(-c2csc(NC(=O)COC(=O)C3CC3)n2)c1        inactive
3  COc1ccc(OC)c(-c2csc(NC(=O)C3=NNC(=O)CC3)n2)c1        inactive
4             CNC(=O)c1sc(NCc2ccccc2OC)nc1C        inactive
5         CC(=O)c1sc(N/N=C\c2ccc(C)cc2)nc1C        inactive

-- ask Please indicate how the test categorized `CC(C)CNc1ncnc2c1cnn2Cc1ccc(Cl)cc1` .
-- reply inactive

-- ask Please indicate how the test categorized `O=[N+]([O-])c1ccccc1S(=O)(=O)Nc1cccc2cccnc12` .
-- reply active

-- ask Please indicate how the test categorized `CC(C)CC(=O)N1CCC(O)(CS(=O)(=O)Cc2ccccc2)CC1` .
-- reply inactive

-- ask Please indicate how the test categorized CCc1ccc(N(C(=O)c2csnn2)C(C(=O)NC2CCCCC2)c2ccncc2)cc1 (stereo unspecified) .
-- reply inactive

-- ask Please indicate how the test categorized `COc1cccc2sc(Nc3nc(C)c(C(C)=O)s3)nc12` .
-- reply active

====

METHOD SUMMARY: PERK-eIF2a-CHOP pathway stimulators – cell-based, CHO-CHOP luciferase reporter, luminescence, uHTS, primary screen (AID 449763);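 further: 100% = tunicamycin at 10 µg/mL and 0% = DMSO alone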
TEST SETTINGS: UPR activation, at 10 µM, percent of tunicamycin response over DMSO baseline
Screen size: about 330,000 compounds; about 1,100 (0.33%) were called active.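 How the source made its calls: active means at 10 µM dose, activation of 40% or more, normalized to positive control; inactive means the rest.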 The entries come from a sample that favours actives as a whole.
Could you please pick one outcome from this set? yes (1) for active, no (0) for inactive

>>> print(df.to_string())
                                   molecule  discrete_label
0  O=C(N/N=C/c1cc2c(cc1Br)OCO2)C1COc2ccccc2O1 (stereo not given)          no (0)
1     Cc1onc(C(=O)NN)c1-c1csc(COc2ccccc2)n1          no (0)
2   O=C(N/N=C\c1cc2c(cc1Cl)OCO2)c1ccc(Br)s1         yes (1)
3  COc1cc(NC(=O)c2cncc(-c3ccc(C#N)cc3)c2)cc(C(=O)Nc2cccc(C(F)(F)F)c2)c1         yes (1)
4  CC1(C(=O)N/N=C/c2cc3c(cc2Br)OCO3)CC1(Br)Br (stereo not given)          no (0)

-- ask Please indicate how the test categorized CC(C)CCNC(=O)Cn1c(=O)oc2cc(S(=O)(=O)N3CC(C)CC(C)C3)ccc21 (stereo not given) .
-- reply no (0)

-- ask Please indicate how the test categorized `COc1ccc(CCNC(=O)CCc2ccccc2O)cc1OC` .
-- reply no (0)

-- ask Please indicate how the test categorized `COc1cc(NC(=O)c2[nH]cnc2C(N)=O)cc(C(=O)Nc2cccc(C(F)(F)F)c2)c1` .
-- reply no (0)

-- ask Please indicate how the test categorized `C[C@@H]1C[C@@H]2O[C@H]2/C=C\C=C\C(=O)Cc2c(Cl)c(O)cc(O)c2C(=O)O1` .
-- reply yes (1)

-- ask Please indicate how the test categorized `O=C(Cc1ccccc1)NC(=S)Nc1ccc(N2CCCCC2)cc1` .
-- reply no (0)

Numbers sourced from PubChem BioAssay AID449763.
